Molecular target: ALK (Homo sapiens, UniProt Q9UM73)
Construct: host or cells: baculovirus expression system
Sequence (Q9UM73 19-1620): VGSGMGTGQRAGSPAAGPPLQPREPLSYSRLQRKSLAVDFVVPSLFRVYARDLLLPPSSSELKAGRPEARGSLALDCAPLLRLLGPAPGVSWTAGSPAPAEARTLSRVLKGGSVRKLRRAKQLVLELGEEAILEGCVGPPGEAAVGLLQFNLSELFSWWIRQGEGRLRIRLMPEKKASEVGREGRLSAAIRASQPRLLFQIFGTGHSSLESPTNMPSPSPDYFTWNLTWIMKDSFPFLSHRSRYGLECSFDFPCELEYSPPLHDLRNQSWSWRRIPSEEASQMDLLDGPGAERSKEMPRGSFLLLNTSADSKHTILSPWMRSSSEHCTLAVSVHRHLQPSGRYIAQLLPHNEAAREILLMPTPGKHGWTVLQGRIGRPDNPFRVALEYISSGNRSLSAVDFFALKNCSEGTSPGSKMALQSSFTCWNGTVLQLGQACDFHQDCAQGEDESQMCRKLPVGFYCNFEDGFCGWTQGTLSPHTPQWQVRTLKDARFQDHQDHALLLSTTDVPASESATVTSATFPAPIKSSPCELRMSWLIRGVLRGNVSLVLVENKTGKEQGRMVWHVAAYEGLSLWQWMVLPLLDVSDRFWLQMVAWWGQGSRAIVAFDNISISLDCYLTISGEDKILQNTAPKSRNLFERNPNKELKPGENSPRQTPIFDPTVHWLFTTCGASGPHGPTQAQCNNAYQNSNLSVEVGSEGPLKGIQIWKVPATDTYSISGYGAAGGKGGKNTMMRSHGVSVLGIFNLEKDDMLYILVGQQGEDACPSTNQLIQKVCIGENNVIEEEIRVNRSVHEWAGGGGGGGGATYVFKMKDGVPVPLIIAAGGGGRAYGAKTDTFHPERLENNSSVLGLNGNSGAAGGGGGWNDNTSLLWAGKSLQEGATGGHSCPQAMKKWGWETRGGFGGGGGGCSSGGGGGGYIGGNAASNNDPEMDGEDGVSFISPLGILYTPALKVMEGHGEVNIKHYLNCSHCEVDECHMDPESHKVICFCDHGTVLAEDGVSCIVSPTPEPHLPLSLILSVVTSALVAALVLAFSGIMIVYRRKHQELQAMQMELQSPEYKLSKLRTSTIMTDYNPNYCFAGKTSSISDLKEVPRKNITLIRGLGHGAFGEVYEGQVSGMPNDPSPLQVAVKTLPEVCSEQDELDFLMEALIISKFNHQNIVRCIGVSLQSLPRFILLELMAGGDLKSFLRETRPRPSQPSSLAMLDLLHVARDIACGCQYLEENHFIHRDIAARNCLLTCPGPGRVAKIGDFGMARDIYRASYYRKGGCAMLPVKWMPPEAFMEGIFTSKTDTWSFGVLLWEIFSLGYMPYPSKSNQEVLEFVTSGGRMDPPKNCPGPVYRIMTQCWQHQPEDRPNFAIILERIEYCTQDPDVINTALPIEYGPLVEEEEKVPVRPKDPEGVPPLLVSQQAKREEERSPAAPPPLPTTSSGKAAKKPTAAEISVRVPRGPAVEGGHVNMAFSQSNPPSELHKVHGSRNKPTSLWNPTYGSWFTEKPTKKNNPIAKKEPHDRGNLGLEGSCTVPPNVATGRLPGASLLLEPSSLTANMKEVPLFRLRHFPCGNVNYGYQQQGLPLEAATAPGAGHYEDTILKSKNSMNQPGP
Assay: ALK Kinase Assay (ELISA/TRF, PLC-γ substrate)
Assay type: biochemical
Settings: ALK Kinase Inhibition; read-out: ALK Potency
measurement_type: IC50

Example entries begin here.
What IC50 value was documented for this compound, "CCc1cc(-c2ccccc2OC)n2nc(Nc3ccc(N4CCN(C)CC4)cc3)ncc12" ? 100 to 1000 nM

What IC50 value was documented for this compound, "CC(C)(C)NS(=O)(=O)c1cccc(-c2ccc3cnc(Nc4ccc(N5CCN(CC(N)=O)CC5)c(F)c4)nn23)c1" ? 100 to 1000 nM

What IC50 value was documented for this compound, "CS(=O)(=O)c1ccc(-c2ccc3cnc(Nc4ccc(C5(C#N)CCN(CC(N)=O)CC5)cc4)nn23)cc1" ? 1000 to 10000 nM

***
What IC50 value was documented for this compound, "CCOc1ccccc1-c1ccc2cnc(Nc3ccc(N4CCN(C)CC4)cc3)nn12" ? < 100 nM

What IC50 value was documented for this compound, COc1ccc(Cl)cc1-c1ccc2cnc(Nc3ccc(N4CCCC(N5CCN(C)CC5)C4)cc3)nn12 (stereo not shown) ? < 100 nM

What IC50 value was documented for this compound, "COc1ccc2c(c1)cc1cnc(Nc3ccc(N4CCOCC4)cc3OC)nn12" ? 1000 to 10000 nM

What IC50 value was documented for this compound, "CS(=O)(=O)c1cccc(-c2ccc3cnc(Nc4ccc5[nH]c(CN6CCN(CCO)CC6)nc5c4)nn23)c1" ? 1000 to 10000 nM

What IC50 value was documented for this compound, "CC(=O)N1CC(C)(C)c2ccc(Nc3ncc4ccc(-c5cccc(S(=O)(=O)NC(C)(C)C)c5)n4n3)cc21" ? 100 to 1000 nM

What IC50 value was documented for this compound, "COc1ccccc1-c1ccc2cnc(Nc3ccc4c(c3)CC(=O)N4C)nn12" ? 100 to 1000 nM

The origin of these recorded values is patent US8471005B2.
